Attribution: patent US20080044360A1

target: T1, rat collagen, acid soluble, type I, rat tail (Upstate 08-115) (rat, UniProt P02454 152-1207; P02466 86-1125); experiment: dried collagen assay
T1 construct: tissue extract, gelled and dried in wells; also called dried rat collagen
T1 sequence (P02454 152-1207, chain 1 of 2): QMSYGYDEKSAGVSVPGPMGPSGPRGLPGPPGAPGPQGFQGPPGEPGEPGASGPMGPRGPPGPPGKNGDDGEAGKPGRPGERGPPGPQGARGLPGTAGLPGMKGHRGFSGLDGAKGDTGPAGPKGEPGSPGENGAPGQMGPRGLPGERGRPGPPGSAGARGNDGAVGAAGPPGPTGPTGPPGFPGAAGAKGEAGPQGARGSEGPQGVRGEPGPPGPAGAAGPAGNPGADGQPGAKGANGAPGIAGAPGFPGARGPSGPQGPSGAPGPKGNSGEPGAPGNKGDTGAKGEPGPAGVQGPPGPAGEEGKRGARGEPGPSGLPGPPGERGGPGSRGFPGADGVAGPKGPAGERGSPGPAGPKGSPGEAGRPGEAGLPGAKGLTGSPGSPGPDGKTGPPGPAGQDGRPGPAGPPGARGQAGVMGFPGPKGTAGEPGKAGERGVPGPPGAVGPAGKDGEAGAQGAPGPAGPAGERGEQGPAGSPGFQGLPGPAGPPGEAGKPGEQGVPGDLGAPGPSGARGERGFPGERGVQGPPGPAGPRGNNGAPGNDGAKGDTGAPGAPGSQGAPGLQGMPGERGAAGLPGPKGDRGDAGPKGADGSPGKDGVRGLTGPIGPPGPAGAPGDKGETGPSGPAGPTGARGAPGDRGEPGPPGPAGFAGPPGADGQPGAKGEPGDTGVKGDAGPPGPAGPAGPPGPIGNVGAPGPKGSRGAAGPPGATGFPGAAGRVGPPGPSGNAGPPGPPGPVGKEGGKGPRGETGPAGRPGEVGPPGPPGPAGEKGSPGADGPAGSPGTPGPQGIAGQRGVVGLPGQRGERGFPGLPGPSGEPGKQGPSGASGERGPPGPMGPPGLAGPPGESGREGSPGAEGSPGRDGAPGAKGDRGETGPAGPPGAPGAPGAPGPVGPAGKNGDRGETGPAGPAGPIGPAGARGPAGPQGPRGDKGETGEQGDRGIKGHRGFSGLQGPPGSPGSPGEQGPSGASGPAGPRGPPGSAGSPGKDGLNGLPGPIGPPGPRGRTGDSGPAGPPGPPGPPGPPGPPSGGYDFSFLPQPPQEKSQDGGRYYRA
T1 sequence (P02466 86-1125, chain 2 of 2): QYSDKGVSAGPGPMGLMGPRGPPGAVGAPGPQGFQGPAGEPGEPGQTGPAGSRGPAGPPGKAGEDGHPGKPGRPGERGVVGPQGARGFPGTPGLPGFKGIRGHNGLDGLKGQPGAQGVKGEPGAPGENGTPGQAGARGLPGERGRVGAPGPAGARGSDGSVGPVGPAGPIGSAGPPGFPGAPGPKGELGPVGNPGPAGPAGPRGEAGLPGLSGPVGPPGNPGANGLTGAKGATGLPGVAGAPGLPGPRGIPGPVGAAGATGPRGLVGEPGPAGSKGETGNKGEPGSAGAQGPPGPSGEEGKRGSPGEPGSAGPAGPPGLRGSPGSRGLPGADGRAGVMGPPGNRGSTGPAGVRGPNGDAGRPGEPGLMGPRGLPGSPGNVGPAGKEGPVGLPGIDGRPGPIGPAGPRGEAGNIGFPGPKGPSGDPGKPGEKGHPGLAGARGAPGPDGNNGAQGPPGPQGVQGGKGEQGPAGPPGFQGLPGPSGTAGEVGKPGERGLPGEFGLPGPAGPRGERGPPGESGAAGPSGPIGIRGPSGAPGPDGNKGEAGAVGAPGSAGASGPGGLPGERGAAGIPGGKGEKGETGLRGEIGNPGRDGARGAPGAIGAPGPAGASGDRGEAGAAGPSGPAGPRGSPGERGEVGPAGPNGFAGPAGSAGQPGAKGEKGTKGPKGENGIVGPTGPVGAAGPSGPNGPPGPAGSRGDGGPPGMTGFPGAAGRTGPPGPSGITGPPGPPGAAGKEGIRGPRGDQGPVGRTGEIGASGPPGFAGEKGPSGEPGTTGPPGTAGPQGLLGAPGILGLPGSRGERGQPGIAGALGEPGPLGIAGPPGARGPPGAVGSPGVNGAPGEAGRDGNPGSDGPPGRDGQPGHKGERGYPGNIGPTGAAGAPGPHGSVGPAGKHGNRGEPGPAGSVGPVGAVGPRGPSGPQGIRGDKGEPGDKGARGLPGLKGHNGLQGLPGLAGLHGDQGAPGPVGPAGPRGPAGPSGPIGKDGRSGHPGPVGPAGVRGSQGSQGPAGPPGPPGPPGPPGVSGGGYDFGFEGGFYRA
Bridge positions count the residues as written; N and C are the ends. Primed or numbered codes have the meaning given here. Ends that are not written are not given here. Gd^T = not defined here; Gd^T″ = GdDTPA-thiourea
Measurement Kind: % bound (%)

[A] {Gd^T″}-GQWACTTRFPHHYCLYG (disulfide 5-14 (inferred)) [Compound ID 876]
[B] {Gd^T}-GQWHCTTRFPAHYCLYG (disulfide 5-14 (inferred); not fully specified (C-terminus); reading uncertain) [Compound ID 865]
Task item: Choose between A and B : whose measured % bound value is numerically larger? Field: selected label. Fill in the label of the entry you choose.
Reply: A
(A: 26%, B: 17%)
